target: recombinant human NMT (Homo sapiens); test: NMT screening assay with purified recombinant GST-NMT-1, [3H]-myristoyl-CoA and biotinylated peptide
Sequence (P30419 whole entry): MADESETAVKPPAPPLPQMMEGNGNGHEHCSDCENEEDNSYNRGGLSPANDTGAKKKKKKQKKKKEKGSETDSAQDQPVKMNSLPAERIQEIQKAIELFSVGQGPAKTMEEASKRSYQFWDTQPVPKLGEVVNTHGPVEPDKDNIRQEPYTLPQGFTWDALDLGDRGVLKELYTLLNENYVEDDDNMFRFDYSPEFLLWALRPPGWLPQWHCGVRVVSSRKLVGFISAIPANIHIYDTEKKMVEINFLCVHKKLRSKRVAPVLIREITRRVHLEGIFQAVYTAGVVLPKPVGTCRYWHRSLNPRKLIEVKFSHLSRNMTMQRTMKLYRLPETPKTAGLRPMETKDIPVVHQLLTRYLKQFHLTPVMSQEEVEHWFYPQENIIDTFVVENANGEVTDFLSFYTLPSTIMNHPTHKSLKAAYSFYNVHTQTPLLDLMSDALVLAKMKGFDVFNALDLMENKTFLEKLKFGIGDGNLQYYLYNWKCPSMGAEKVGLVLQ
Please provide measured pIC50 for the entries that follow.
Answers are plain numbers, as −log10 of the molar value.

Guide cases for pIC50, answers given:
1. COc1ccc2ccccc2c1CN1CCN2CCCC2C1C1CCCCC1 (stereo not drawn) [Compound 622]; 4.55
2. COc1ccccc1/C=C/CN1CCN2CCCC2C1C1CCCCC1 (stereo not drawn) [Compound 640]; 2.80
3. c1cncc(N2CCN3CCCC3C2C2CCCCC2)c1 (stereo not drawn) [Compound 522]; 3.23
4. CC1=C(CCN2CCN3CCCC3C2C2CCCCC2)C(C)(C)CCC1 (stereo not drawn) [Compound 638]; 4.37
5. O=[N+]([O-])c1ccc(-c2ccc(CN3CCN4CCCC4C3C3CCCCC3)o2)cc1 (stereo not drawn) [Compound 617]; 4.44
6. O=[N+]([O-])c1cccc(-c2ccc(CN3CCN4CCCC4C3C3CCCCC3)o2)c1 (stereo not drawn) [Compound 616]; 4.39

Give me pIC50 for each of these compounds, listed below.
1. O=[N+]([O-])c1ccccc1-c1ccc(CN2CCN3CCCC3C2C2CCCCC2)o1 (stereo not drawn) [Compound 615]
2. COc1ccc(CN2CCN3CCCC3C2C2CCCCC2)cc1 (stereo not drawn) [Compound 486]

Reply:
4.35
3.38
